assayProtocol: Plasma pharmacokinetics of telatinib and metabolite BAY 60-8246 (LC-MS-MS, non-compartmental)
Format: in vivo, human
conditionLabel: human, plasma; telatinib, oral, BID dosing; read-out: median tmax
parameterMeasured: Tmax

Return reported Tmax; argument: CNC(=O)c1cc(COc2nnc(Nc3ccc(Cl)cc3)c3ccoc23)ccn1 [telatinib]
≤ 3 h

* * *

assayProtocol: Plasma pharmacokinetics of telatinib and metabolite BAY 60-8246 (LC-MS-MS, non-compartmental)
Assay type: in vivo, human
conditionLabel: human; telatinib in plasma, day 14 cycle 1, 150 mg BID oral, 25 mg mesylate tablet, n=6, geometric mean (%CV); read-out: AUC0–tn
parameterMeasured: AUC
In your response, the unit should come after the numeric value.

Return reported AUC; argument: "CNC(=O)c1cc(COc2nnc(Nc3ccc(Cl)cc3)c3ccoc23)ccn1"
1750 ng·h/mL
